Measured Kd accompanies every entry in the list below.
biological target: HGF (hepatocyte growth factor/scatter factor) (UniProt P14210;P14210 P14210:32-494,P14210:495-728); assay: filter; HBSMC, 37C; settings: tags: R&D Systems
Sequence (P14210 32-494, chain 1 of 2): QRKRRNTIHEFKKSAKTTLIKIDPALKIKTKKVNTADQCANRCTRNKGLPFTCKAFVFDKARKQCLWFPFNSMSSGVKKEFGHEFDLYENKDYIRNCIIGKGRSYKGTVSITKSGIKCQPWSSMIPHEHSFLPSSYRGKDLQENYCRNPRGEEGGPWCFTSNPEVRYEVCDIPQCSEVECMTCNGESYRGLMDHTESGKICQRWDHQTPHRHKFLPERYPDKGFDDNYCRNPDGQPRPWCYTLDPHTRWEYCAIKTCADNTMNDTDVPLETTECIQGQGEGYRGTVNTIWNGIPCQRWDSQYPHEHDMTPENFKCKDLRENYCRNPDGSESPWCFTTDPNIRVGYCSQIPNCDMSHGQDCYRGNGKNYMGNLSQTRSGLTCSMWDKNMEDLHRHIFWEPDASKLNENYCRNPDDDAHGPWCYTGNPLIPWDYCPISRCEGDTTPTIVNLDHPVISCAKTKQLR
Sequence (P14210 495-728, chain 2 of 2): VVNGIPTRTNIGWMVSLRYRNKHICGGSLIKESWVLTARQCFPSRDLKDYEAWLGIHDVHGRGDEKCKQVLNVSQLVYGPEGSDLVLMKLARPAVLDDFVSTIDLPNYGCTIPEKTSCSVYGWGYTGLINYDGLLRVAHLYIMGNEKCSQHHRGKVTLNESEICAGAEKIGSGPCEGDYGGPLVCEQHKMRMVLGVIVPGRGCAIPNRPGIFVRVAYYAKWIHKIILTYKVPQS

{"columns": ["BINDER", "Kd"],
 "data": [
  ["11-163 (ssRNA, 2'-F pyrimidines) RNA: GGGAGGACGAUGCGGGCUUGAGUCUUUGAUCGUCUUAUCCCUCGUCAGACGACUCGCCCGA", "0.082 nM"],
  ["8-122 (ssRNA, 2'-F pyrimidines) RNA: GGGAGGACGAUGCGGCGGUGUGAACCUGUUUAUGUCCGCGUACCCCAGACGACUCGCCCGA", "0.097 nM"],
  ["10-72 (ssRNA, 2'-F pyrimidines) RNA: GGGAGAUAAGAAUAAACGCUCAAUGUGGCACUGUUGUCCACAAGGGCCUCAUUCGACAGGAGGCUCACAACAGGC", "0.45 nM"]
]}
